target: mouse NMUR2 (mouse, UniProt Q8BZ39 1-395); test: cell-based or functional assay
Sequence (Q8BZ39 whole entry): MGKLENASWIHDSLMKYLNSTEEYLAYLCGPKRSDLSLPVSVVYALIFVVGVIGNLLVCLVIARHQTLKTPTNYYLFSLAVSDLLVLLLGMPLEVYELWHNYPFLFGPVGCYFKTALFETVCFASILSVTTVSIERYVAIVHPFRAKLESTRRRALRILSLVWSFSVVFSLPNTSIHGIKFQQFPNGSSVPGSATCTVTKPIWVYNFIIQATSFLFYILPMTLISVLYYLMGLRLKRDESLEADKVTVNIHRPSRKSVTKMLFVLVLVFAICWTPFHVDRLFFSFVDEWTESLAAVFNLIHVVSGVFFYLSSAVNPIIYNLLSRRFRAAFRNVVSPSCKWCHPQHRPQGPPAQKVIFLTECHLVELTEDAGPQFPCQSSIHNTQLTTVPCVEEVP
Groups on a side chain read outwards from the residue. cholesteroyl = cholesterol group linked to a cysteine residue via the side-chain thiol
Known % Activity (maximum response at 1 µM compared to the human NMU-25 response) of a selection of binders
Quantity: % Activity (maximum response at 1 µM compared to the human NMU-25 response) (%)

1. Ac-C([maleimide-PEG 40 kDa])ILQRGSGTAAVDFTKKDHTATWGRPFFLFRPRN-NH2 [NMS4 (Ac-C4ILQRGSGTAAVDFTKKDHTATWGRPFFLFRPRN-CONH2)]: 104
2. H-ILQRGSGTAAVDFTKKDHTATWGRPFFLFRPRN-NH2 [native human Neuromedin S peptide (NMS)]: 111
3. Ac-C(cholesteroyl)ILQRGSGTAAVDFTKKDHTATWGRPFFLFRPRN-NH2 [NMS2 (Ac-C3ILQRGSGTAAVDFTKKDHTATWGRPFFLFRPRN-CONH2)]: 32
4. Ac-C([maleimide-(PEG)2 40 kDa])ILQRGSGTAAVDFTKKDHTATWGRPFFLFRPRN-NH2 [NMS1 (Ac-C2ILQRGSGTAAVDFTKKDHTATWGRPFFLFRPRN-CONH2)]: 99

Values were extracted from patent US20110301079A1.
